tgt: MdesOR115 (with MdesOrco; HEK293/TMO/MdesOR115) (Mayetiola destructor)
Construct: with Odorant receptor coreceptor
Sequence (A0A1D8GZG1 1-412): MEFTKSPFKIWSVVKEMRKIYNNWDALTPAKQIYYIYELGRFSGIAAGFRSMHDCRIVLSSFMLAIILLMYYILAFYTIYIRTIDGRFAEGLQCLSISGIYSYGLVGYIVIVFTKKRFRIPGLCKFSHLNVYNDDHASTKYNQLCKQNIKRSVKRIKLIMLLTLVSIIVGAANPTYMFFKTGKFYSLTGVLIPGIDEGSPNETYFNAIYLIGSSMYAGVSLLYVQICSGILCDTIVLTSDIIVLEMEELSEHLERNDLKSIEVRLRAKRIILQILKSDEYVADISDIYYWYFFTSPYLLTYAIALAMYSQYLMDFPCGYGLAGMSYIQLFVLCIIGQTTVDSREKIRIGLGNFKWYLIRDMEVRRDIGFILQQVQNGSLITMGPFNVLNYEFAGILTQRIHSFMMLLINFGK
Sequence (A0A1D8GZG0 1-466 partner): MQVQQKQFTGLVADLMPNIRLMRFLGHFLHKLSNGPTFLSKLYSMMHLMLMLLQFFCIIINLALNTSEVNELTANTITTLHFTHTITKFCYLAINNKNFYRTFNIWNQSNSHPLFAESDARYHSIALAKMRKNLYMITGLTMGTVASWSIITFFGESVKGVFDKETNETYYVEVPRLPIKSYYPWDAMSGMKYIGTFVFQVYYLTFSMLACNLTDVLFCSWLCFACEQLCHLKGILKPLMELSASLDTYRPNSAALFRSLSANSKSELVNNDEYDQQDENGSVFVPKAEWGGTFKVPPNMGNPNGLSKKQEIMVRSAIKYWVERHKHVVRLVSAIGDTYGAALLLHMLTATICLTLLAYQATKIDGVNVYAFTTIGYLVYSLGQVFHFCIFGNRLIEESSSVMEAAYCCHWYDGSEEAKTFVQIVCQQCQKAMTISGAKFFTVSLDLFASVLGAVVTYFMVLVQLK
protocol.text: fluorescent calcium assay, HEK293 cells, dose-response
pEC50: −log10 of the molar value.
measurement.name: pEC50

Q. Look up and state reported pEC50 for CC/C=C/C=C/CCCCC[C@H](C)OC(C)=O [2S-8E,10E-13:OAc]
A. 5.43 to 5.69

Every entry's value here was drawn from paper PMC5013046.
